# target-under-test: T1, human G-protein-coupled receptor family C group 5 member D (GPRC5D) (human, UniProt Q9NZD1 1-345)
# T1 construct: whole, on cells; also called human GPRC5D protein
# T1 sequence (Q9NZD1 whole entry): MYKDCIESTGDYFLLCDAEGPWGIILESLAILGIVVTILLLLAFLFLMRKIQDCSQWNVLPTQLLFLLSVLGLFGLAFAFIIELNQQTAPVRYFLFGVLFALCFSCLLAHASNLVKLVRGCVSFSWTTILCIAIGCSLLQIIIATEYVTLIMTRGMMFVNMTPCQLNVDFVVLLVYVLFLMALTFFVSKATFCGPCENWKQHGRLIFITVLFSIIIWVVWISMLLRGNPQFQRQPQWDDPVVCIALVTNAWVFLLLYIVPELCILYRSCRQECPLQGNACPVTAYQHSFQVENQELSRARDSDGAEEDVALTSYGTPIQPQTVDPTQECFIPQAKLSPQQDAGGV
# assay-overview: FACS, CHO-K1/GPRC5D
endpoint-name: Span
Format: numeric value only, no unit, no commentary.

Here's what some known entries look like.
37-H2L2 (antibody, V domains shown, humanized 37B9C4, VH v2 x VL v2) VH: EVQLVESGGGLVQPGGSLRLSCAASGFTFSDYWMNWVRQSPGKGLEWVAEIRLKSNNYATHYAESVKGRFTISRDNAKSSLYLQMNSLRAEDTAVYYCTRPLLWFRRYYAMDYWGQGTLVTVSS VL: DIQMTQSPSSLSASVGDRVTITCSASQGISNYLNWYQQKPGKTVKLLIYYTSSLHSGVPSRFSGSGSGTDYTLTISSLQPEDFATYYCQQYSKLPFTFGQGTKLEIK : 166000
37-H3L2 (antibody, V domains shown, humanized 37B9C4, VH v3 x VL v2) VH: EVQLVESGGGLVQPGGSLRLSCAASGFTFSDYWMNWVRQSPGKGLEWVAEIRLKSNNYATHYAESVKGRFTISRDDSKSSVYLQMNSLRAEDTAVYYCTRPLLWFRRYYAMDYWGQGTLVTVSS VL: DIQMTQSPSSLSASVGDRVTITCSASQGISNYLNWYQQKPGKTVKLLIYYTSSLHSGVPSRFSGSGSGTDYTLTISSLQPEDFATYYCQQYSKLPFTFGQGTKLEIK : 170000
37-H1L2 (antibody, V domains shown, humanized 37B9C4, VH v1 x VL v2) VH: EVQLVESGGGLVQPGGSLRLSCAASGFTFSDYWMNWVRQAPGKGLEWVAEIRLKSNNYATHYAESVKGRFTISRDNAKNSLYLQMNSLRAEDTAVYYCARPLLWFRRYYAMDYWGQGTLVTVSS VL: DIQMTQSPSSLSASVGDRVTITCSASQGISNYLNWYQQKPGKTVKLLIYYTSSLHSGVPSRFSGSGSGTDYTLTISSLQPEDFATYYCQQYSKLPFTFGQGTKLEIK : 173000
37-H1L3 (antibody, V domains shown, humanized 37B9C4, VH v1 x VL v3) VH: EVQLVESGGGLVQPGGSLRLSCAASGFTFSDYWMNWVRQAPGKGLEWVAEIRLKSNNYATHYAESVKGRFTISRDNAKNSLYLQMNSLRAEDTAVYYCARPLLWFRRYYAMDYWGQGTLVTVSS VL: DIQMTQSPSSLSASVGDRITITCSASQGISNYLNWYQQKPGKTVKLLIYYTSSLHSGVPSRFSGSGSGTDYTLTISSLQPEDFATYYCQQYSKLPFTFGSGTKLEIK : 163000

Okay, next one:
Looking up 37-H1L1 (antibody, V domains shown, humanized 37B9C4, VH v1 x VL v1; also called 37B9C4 (H1L1)) VH: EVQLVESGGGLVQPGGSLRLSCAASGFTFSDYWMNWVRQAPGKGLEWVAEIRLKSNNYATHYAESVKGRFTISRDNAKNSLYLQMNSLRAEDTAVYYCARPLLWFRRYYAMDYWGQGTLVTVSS VL: DIQMTQSPSSLSASVGDRVTITCSASQGISNYLNWYQQKPGKAPKLLIYYTSSLHSGVPSRFSGSGSGTDFTLTISSLQPEDFATYYCQQYSKLPFTFGQGTKLEIK , I see its Span listed as 169000
